# assayConditions: in n-butanol, 285.65 K
observationType: solubility (mole fraction)
The response must contain the number and no unit.

Query block: What value of solubility (mole fraction) has been reported for the following compound? CC(=O)c1ccc2ccccc2c1O
Result block: 0.0065

====

# assayConditions: in n-heptane, 304.65 K
observationType: solubility (mole fraction)
// return a plain number; no unit text

Query block: Can you share its solubility (mole fraction)? I mean this molecule: CC(=O)c1ccc2ccccc2c1O
Result block: 0.0153

====

# assayConditions: in n-heptane, 290.65 K
observationType: solubility (mole fraction)
Reply briefly: the number, and no unit.

Query block: Quick one: solubility (mole fraction) for CC(=O)c1ccc2ccccc2c1O ?
Result block: 0.008
